- assay: chemical genetic growth profiling, strain panel (AID 1159580);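 also: tested at 20 µM; growth read once vehicle control cultures reached saturation at 30 °C; 1 = growth at the plate median or of vehicle wells; lower values mean less growth of the strain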
- test-settings: S. cerevisiae deletion strains, growth OD, locus YBR229C, strain ROT2, stronger effect = lower value
Screen size: about 5,500 compounds; about 2,000 (36%) were called active. About 18% were inconclusive and are not listed. The list shows a part of the results.

molecule	normalized growth
C1CNCCN1	0.997
NC(=NCCC[C@H](N)C(=O)O)NC(CCC(=O)O)C(=O)O (stereo partly specified)	1.01
O=C(COC(=O)c1ccccc1Nc1ccccc1)c1ccc(Cl)cc1	0.99
COC(=O)Oc1ccccc1C(=O)O	1.01
O=C(/C=N\Nc1ccccc1)Nc1ccccc1C(=O)O	0.98
O=C(COC(=O)c1ccccc1Nc1cccc(F)c1)c1ccccc1	0.994
COC(=O)c1cc(OC)c(OC)cc1-n1c(C)ccc1C	0.994
Fc1cc2n[nH]nc2cc1Cl	0.989
CC(C)N(C(=O)SCC(Cl)=C(Cl)Cl)C(C)C	1.01
COC(C)(C)CCC[C@H](C)C/C=C/C(C)=C/C(=O)OC(C)C	1
O=C(N/N=C\c1cccs1)c1ccccc1CO	1.01
